molecular target: human GLP-1 receptor (human, UniProt P43220); assay: cell-based or functional assay
Starred links: 1 amine or outer side, 2 acyl side, 3 side chain; linkers in the order of their positions; H or OH if unused. Non-standard residues stand in square brackets, D forms with d. Groups on a side chain read outwards from the residue. No end group written: not given here. *: point of attachment. C20 diacid = O=C(O)CCCCCCCCCCCCCCCCCCC(=O)*; C18 diacid = O=C(O)CCCCCCCCCCCCCCCCC(=O)*; γGlu = O=C(O)[C@H](CCC(=O)[*:2])N[*:1]; αMeF = C[C@](N)(Cc1ccccc1)C(=O)O; (PEG)2 = polyethylene glycol 2; AEEA = NCCOCCOCC(=O)O; Aib = CC(C)(N)C(=O)O
TEST_READOUT: hGLP-1R EC50 (pM)
Respond with a number, then the unit of measure.

Known results for binders:
[
  {
    "BINDER": "H[Aib]HGS[αMeF]TSDVSK[αMeF]LDSRAAK([AEEA-AEEA-γGlu-C18 diacid])D[αMeF]VQWIANT-NH2 [Peptide 288]",
    "TEST_READOUT": "hGLP-1R EC50 (pM)",
    "TEST_RESULT": "42.7 pM"
  },
  {
    "BINDER": "H[Aib]HGS[αMeF]TSDVSK[αMeF]LDSRAAK([AEEA-γGlu-AEEA-γGlu-C18 diacid])D[αMeF]VQ[Aib]IANT-NH2 [Peptide 260]",
    "TEST_READOUT": "hGLP-1R EC50 (pM)",
    "TEST_RESULT": "33.1 pM"
  },
  {
    "BINDER": "H[Aib]HGS[αMeF]TSDVSK[αMeF]LDSRAAK([AEEA-AEEA-γGlu-γGlu-C20 diacid])DFVQWIANT-NH2 (not fully specified) [Peptide 290]",
    "TEST_READOUT": "hGLP-1R EC50 (pM)",
    "TEST_RESULT": "347 pM"
  },
  {
    "BINDER": "H[Aib]HGS[αMeF]TSDVSK[αMeF]LDSRAAK([(PEG)2-(PEG)2-γGlu-γGlu-C20 diacid])D[αMeF]VQ[Aib]IANT-NH2 [Peptide 264]",
    "TEST_READOUT": "hGLP-1R EC50 (pM)",
    "TEST_RESULT": "69.5 pM"
  }
]

Batch request: hGLP-1R EC50 (pM) per item, same order as input.
1. H[Aib]HGS[αMeF]TSDVSK[αMeF]LDSRAAK([AEEA-γGlu-AEEA-γGlu-C20 diacid])D[αMeF]VQ[Aib]IANT-NH2 [Peptide 266]
2. H[Aib]HGS[αMeF]TSDVSK[αMeF]LDSRAAK([AEEA-γGlu-AEEA-C20 diacid])D[αMeF]VQ[Aib]IANT-NH2 [Peptide 265]

// result
1: 66.5 pM; 2: 71.2 pM
